# Tested on: human A549 cells
# ASSAY REMARKS: Protective effect against cell injury induced by oxidized LDL in human A549 cells (LDH leakage)
# Assay type: cell-based
# SETTINGS: Homo sapiens, 3 μmol/L test compound, oxidized LDL 100 μg/mL, 24 hours, average ± standard error, read-out: % Cell protection in the case where oxidized LDL was added immediately after adding test compound
QUANTITY MEASURED: inhibition at 3 µM (%)
Unit % implied. Number only.

Some molecules with known inhibition at 3 µM results, for comparison:
CC1(C)Cc2c(cc(C(C)(C)C)c(O)c2C(C)(C)C)S1 = 11.1
CC(C)(C)c1cc2c(c(C(C)(C)C)c1O)CC1(CCCCC1)O2 = 0.9
CC(C)(C)c1cc2c(c(C(C)(C)C)c1O)CC(Cc1ccccc1)(Cc1ccccc1)O2 = 5.3

Prompt line: Given the entry CC1(C(=O)O)Cc2c(cc(C(C)(C)C)c(O)c2C(C)(C)C)O1 (centres unmarked) , what inhibition at 3 µM was observed with human A549 cells?
Response line: 9.1

Prompt line: CC(C)(C)c1cc2c(c(C(C)(C)C)c1O)CC1(CCOCC1)S2 , same question.
Response line: 3.2
